targetOfAssay: T1, P2-AA-1HAA-S
T1 chain: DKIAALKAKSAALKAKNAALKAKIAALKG
assayProcedure: two-hybrid library CCmax;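 further: natural log of median RNA to DNA barcode read ratio; higher means stronger binding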
settings: mean of both orientations
metric: interaction score
Hey, just send me the number, nothing else.

{"binder": "DEIAALEAESAALEAENAALEAEIAALEG [P1-AA-1HAA-S]", "interaction score": 1.18}
{"binder": "DEIAALEAETAALEAENAALEAEIAALEG [P1-AA-1HAA-T]", "interaction score": 2.1}
{"binder": "DEIAALEAELAALEAENAALEAEIAALEG [P1-AA-1HAA-L]", "interaction score": 1.77}
{"binder": "DEIAALEAEIAALEAENAALEAEIAALEG [P1-AA-1HAA-I]", "interaction score": 2.03}
{"binder": "DEIAALEAERAALEAENAALEAEIAALEG [P1-AA-1HAA-R]", "interaction score": 1.28}

Exercise: Please report interaction score for the following binder: DEIAALEAEEAALEAENAALEAEIAALEG [P1-AA-1HAA-E]
Key: 1.57

Exercise: Look up interaction score of DEIAALEAEKAALEAENAALEAEIAALEG [P1-AA-1HAA-K] and report it.
Key: 1.97
